Values were extracted from ChEMBL document CHEMBL1151742.

Below is a list of entries, each paired with its recorded half-life value.
# Experiment Description: Metabolic stability in rat serum assessed as half life at pH 7.5
# Format: ADME, cell-free
Readout Label: half-life

Smiles Str	Result
CCCCCCCCCCCCCCCC(=O)NCCCC[C@H](NC(=O)[C@H](CCCCN)NC(=O)[C@H](CCCCN)NC(=O)[C@@H]1CCCN1C(=O)CNC(=O)[C@H](CC(C)C)NC(=O)[C@H](CC(C)C)NC(=O)[C@H](Cc1ccc(O)cc1)NC(=O)CNC(=O)[C@H](C)NC(=O)[C@H](CO)NC(=O)[C@H](CC(N)=O)NC(=O)[C@H](CC(C)C)NC(=O)[C@@H](NC(=O)[C@H](Cc1c[nH]c2ccccc12)NC(=O)CNC)[C@@H](C)O)C(=O)N[C@@H](CCCCN)C(N)=O	9.4 h
CCCCCCCCCCCCCCCC(=O)NCCCC[C@H](NC(=O)[C@H](C)NC(=O)[C@H](Cc1cnc[nH]1)NC(=O)[C@@H]1CCCN1C(=O)CNC(=O)[C@H](CC(C)C)NC(=O)[C@H](CC(C)C)NC(=O)[C@H](Cc1ccc(O)cc1)NC(=O)CNC(=O)[C@H](C)NC(=O)[C@H](CO)NC(=O)[C@H](CC(N)=O)NC(=O)[C@H](CC(C)C)NC(=O)[C@@H](NC(=O)[C@H](Cc1c[nH]c2ccccc12)NC(=O)CNC)[C@@H](C)O)C(N)=O	> 10 h
CCCCCCCCCCCCCCCC(=O)NCCCC[C@H](NC(=O)[C@@H]1CCCN1C(=O)CNC(=O)[C@H](CC(C)C)NC(=O)[C@H](CC(C)C)NC(=O)[C@H](Cc1ccc(O)cc1)NC(=O)CNC(=O)[C@H](C)NC(=O)[C@H](CO)NC(=O)[C@H](CC(N)=O)NC(=O)[C@H](CC(C)C)NC(=O)[C@@H](NC(=O)[C@H](Cc1c[nH]c2ccccc12)NC(=O)CNC)[C@@H](C)O)C(=O)N[C@@H](CCCCN)C(=O)N[C@@H](CCCCN)C(=O)N[C@@H](CCCCN)C(N)=O	> 10 h
